Cited source: ChEMBL document CHEMBL1955761

test system: Escherichia coli; test: Inhibition of Escherichia coli MetAP at 10 uM after 15 mins by fluorescence analysis
Active and inactive are the calls of the source.
measured_quantity: inhibition

// solved cases for inhibition follow
Give reported inhibition value for CN(C)c1ccc(/C=C2\SC(=O)NC2=O)cc1
13%

Give reported inhibition value for CC(=O)N1C(=S)NC(=O)[C@@H]1Cc1ccc(O)cc1
inactive

Give reported inhibition value for O=C1NC(=O)/C(=C/c2cccc(O)c2)N1
inactive

Give reported inhibition value for O=C1NC(=S)N/C1=C\c1sccc1Cl
inactive

Give reported inhibition value for O=C1NC(=S)N/C1=C1/CCOc2ccccc21
28%

Give reported inhibition value for COc1ccccc1/C=C1\NC(=O)NC1=O
inactive

Next:
Give reported inhibition value for O=C1NC(=S)N/C1=C\c1cc2ccccc2[nH]1
inactive

###

test system: Escherichia coli; test: Inhibition of Escherichia coli MurA using PEP as substrate assessed as inorganic phosphate release at 25 uM preincubated for 10 mins measured after 60 mins […]
Activity calls are given as the source filed them.
measured_quantity: inhibition

Give reported inhibition value for O=C1NC(=S)N/C1=C\c1ccc(Cl)s1
22%

Give reported inhibition value for Nc1ccc(/C=C2\SC(=S)NC2=O)cc1
inactive

Give reported inhibition value for COc1ccccc1/C=C1\NC(=S)NC1=O
10%

Give reported inhibition value for O=C1NC(=O)C(Cc2cccs2)N1 (stereo not given)
inactive

Next:
Give reported inhibition value for O=C1NC(=S)N/C1=C\c1c(F)c(F)c(F)c(F)c1F
17%

Give reported inhibition value for O=C1NC(=S)S/C1=C\C=C\c1ccco1
94%

Give reported inhibition value for COc1ccc(/C=C2\SC(=S)NC2=O)cc1OC
inactive

Give reported inhibition value for O=C1NC(=O)/C(=C/c2ccc3ccccc3c2)N1
inactive

Give reported inhibition value for O=C1NC(=O)/C(=C/c2ccccc2)N1
100%

Give reported inhibition value for C/C(=C1/NC(=S)NC1=O)c1ccc(C2CCCCC2)cc1
13%

Give reported inhibition value for O=C1NC(=O)/C(=C/c2ccc(Br)s2)N1
inactive

Give reported inhibition value for Cn1cc(/C=C2\SC(=O)NC2=O)c2ccccc21
inactive

Give reported inhibition value for COc1ccc(/C=C/C=C2\SC(=O)NC2=O)cc1
13%

###

tested on: Escherichia coli; experiment: Inhibition of Escherichia coli MurA using PEP as substrate assessed as inorganic phosphate release at 25 uM preincubated for 10 mins measured after 60 mins […]
Activity calls are given as the source filed them.
measured_quantity: inhibition

// solved cases for inhibition follow
Give the observed inhibition of COc1ccccc1/C=C1\SC(=S)NC1=O for Escherichia coli.
10%

Give the observed inhibition of O=C1NC(=O)/C(=C/C2CCCCC2)S1 for Escherichia coli.
inactive

Give the observed inhibition of CCCC/C=C/C1SC(=S)NC1=O (centres undefined) for Escherichia coli.
10%

Give the observed inhibition of COc1ccc(/C=C2\NC(=S)NC2=O)cc1 for Escherichia coli.
inactive

Give the observed inhibition of O=C1NC(=S)S/C1=C\c1ccc(Cl)cc1Cl for Escherichia coli.
15%

Give the observed inhibition of C/C(=C1/NC(=S)NC1=O)c1ccccc1 for Escherichia coli.
24%

Give the observed inhibition of O=C1NC(=S)SC1Cc1ccccc1 (centres undefined) for Escherichia coli.
11%

Give the observed inhibition of NC(=O)CC[C@@H]1NC(=S)NC1=O for Escherichia coli.
25%

Next:
Give the observed inhibition of O=C1NC(=O)/C(=C/c2ccccn2)S1 for Escherichia coli.
inactive

Give the observed inhibition of O=C1NC(=O)[C@H](Cc2c[nH]c3ccccc23)N1 for Escherichia coli.
inactive

Give the observed inhibition of O=C1NC(=S)S/C1=C\c1cnc[nH]1 for Escherichia coli.
18%

Give the observed inhibition of C/C(=C1/NC(=S)NC1=O)c1cccs1 for Escherichia coli.
50%

Give the observed inhibition of O=C1NC(=S)S/C1=C\c1sccc1Cl for Escherichia coli.
43%

Give the observed inhibition of O=C1NC(=S)S/C1=C\c1ccc([N+](=O)[O-])cc1 for Escherichia coli.
65%

###

target: Prothrombin (Bos taurus); assay: Inhibition of bovine plasma thrombin using Boc-Val-Pro-Arg-AMC as substrate at 25 uM preincubated for 15 mins measured after 10 mins by fluorimetric assay
Activity calls are given as the source filed them.
measured_quantity: inhibition

// solved cases for inhibition follow
Give reported inhibition value for Cc1ccc(/C=C2\SC(=S)NC2=O)cc1
23%

Give reported inhibition value for O=C1NC(=S)NC1=C(c1ccccc1)c1ccccc1
inactive

Give reported inhibition value for COc1cccc(/C=C2\NC(=S)NC2=O)c1
15%

Give reported inhibition value for O=C1NC(=S)S/C1=C\C=C\c1ccco1
28%

Give reported inhibition value for O=C1NC(=S)N/C1=C\c1cc2ccccc2[nH]1
23%

Give reported inhibition value for O=C1NC(=O)/C(=C/c2cccs2)S1
24%

Next:
Give reported inhibition value for O=C1NC(=S)N/C1=C\c1sccc1Br
11%

Give reported inhibition value for O=C1NC(=S)S/C1=C\c1cccc(O)c1
15%

Give reported inhibition value for O=C1NC(=S)N[C@H]1Cc1c[nH]c2ccccc12
inactive

Give reported inhibition value for O=C1NC(=S)S/C1=C\C1CCCCC1
29%

Give reported inhibition value for O=C1NC(=S)NC1Cc1cccs1 (stereo not drawn)
inactive

Give reported inhibition value for O=C1NC(=S)N/C1=C\c1ccccc1
17%

Give reported inhibition value for O=C1NC(=O)/C(=C/c2c(F)c(F)c(F)c(F)c2F)S1
inactive

Give reported inhibition value for Nc1ccc(/C=C2\SC(=S)NC2=O)cc1
11%

Give reported inhibition value for C/C(=C1/SC(=S)NC1=O)c1ccc(F)cc1
20%

Give reported inhibition value for O=C1NC(=O)[C@H](Cc2c[nH]c3ccccc23)N1
inactive

Give reported inhibition value for CC(C)C[C@@H]1NC(=S)NC1=O
inactive

###

target: Prothrombin (Bos taurus) (UniProt P00735); assay: Inhibition of bovine plasma thrombin using Boc-Val-Pro-Arg-AMC as substrate at 25 uM preincubated for 15 mins measured after 10 mins by fluorimetric assay
The source made the active and inactive calls.
measured_quantity: inhibition

// solved cases for inhibition follow
Give the observed inhibition of CCC/C=C/C1SC(=S)NC1=O (stereo unspecified) for Prothrombin (Bos taurus) (UniProt P00735).
11%

Give the observed inhibition of O=C1CSC(=S)N1 for Prothrombin (Bos taurus) (UniProt P00735).
inactive

Give the observed inhibition of O=C1NC(=S)S/C1=C\c1ccc(Cl)cc1Cl for Prothrombin (Bos taurus) (UniProt P00735).
23%

Give the observed inhibition of COc1ccccc1/C=C1\SC(=S)NC1=O for Prothrombin (Bos taurus) (UniProt P00735).
11%

Give the observed inhibition of O=C1CNC(=O)N1 for Prothrombin (Bos taurus) (UniProt P00735).
inactive

Give the observed inhibition of O=C1NC(=O)/C(=C/c2c[nH]c3ccccc23)S1 for Prothrombin (Bos taurus) (UniProt P00735).
23%

Next:
Give the observed inhibition of COc1ccc(/C=C2\NC(=S)NC2=O)cc1 for Prothrombin (Bos taurus) (UniProt P00735).
13%

Give the observed inhibition of O=C1NC(=O)/C(=C/c2sccc2Br)N1 for Prothrombin (Bos taurus) (UniProt P00735).
16%

Give the observed inhibition of O=C1NC(=S)S/C1=C\c1ccc(O)cc1 for Prothrombin (Bos taurus) (UniProt P00735).
34%

Give the observed inhibition of O=C1NC(=S)N/C1=C\c1cccc(O)c1 for Prothrombin (Bos taurus) (UniProt P00735).
12%

Give the observed inhibition of CC(=O)N1C(=S)NC(=O)[C@@H]1CCCCN for Prothrombin (Bos taurus) (UniProt P00735).
inactive

Give the observed inhibition of CN(C)c1ccc(/C=C2\SC(=S)NC2=O)cc1 for Prothrombin (Bos taurus) (UniProt P00735).
21%

Give the observed inhibition of O=C1NC(=S)S/C1=C\c1c[nH]c2ccccc12 for Prothrombin (Bos taurus) (UniProt P00735).
26%

Give the observed inhibition of O=C1NC(=O)/C(=C/c2cccc(O)c2)N1 for Prothrombin (Bos taurus) (UniProt P00735).
12%

Give the observed inhibition of CCCC/C=C/C1NC(=S)NC1=O (stereo unspecified) for Prothrombin (Bos taurus) (UniProt P00735).
10%

Give the observed inhibition of Cc1ccc(/C=C2\NC(=O)NC2=O)cc1 for Prothrombin (Bos taurus) (UniProt P00735).
inactive

###

system: Dengue virus; assay: Inhibition of Dengue virus NS2B-NS3 protease using Abz-NleKRRS-3-(NO2)Y as substrate at 50 uM preincubated for 15 mins measured every sec for 15 mins by fluorimetric analysis
Active and inactive are the calls of the source.
measured_quantity: inhibition

// solved cases for inhibition follow
Give reported inhibition value for O=C1NC(=S)S/C1=C\c1ccc(O)cc1
47%

Give reported inhibition value for O=C1NC(=S)N/C1=C\c1c(F)c(F)c(F)c(F)c1F
24%

Give reported inhibition value for O=C1NC(=O)/C(=C/c2ccco2)N1
25%

Give reported inhibition value for COc1cc(/C=C2\NC(=O)NC2=O)ccc1O
13%

Give reported inhibition value for C/C(=C1/SC(=S)NC1=O)c1ccccc1
23%

Give reported inhibition value for C/C(=C1/SC(=O)NC1=O)c1ccc2ccccc2c1
30%

Give reported inhibition value for O=C1NC(=O)[C@H](Cc2c[nH]c3ccccc23)N1
inactive

Give reported inhibition value for O=C1NC(=S)N/C1=C\c1ccc(Cl)s1
42%

Let us move to another entry and its inhibition.
Give reported inhibition value for O=C1NC(=O)/C(=C/c2c(F)c(F)c(F)c(F)c2F)N1
14%
